- experimental target: Dimer of Gag-Pol polyprotein [514-612] (Human immunodeficiency virus 2)
- Construct: 514-612
- Sequence (P04584 514-612): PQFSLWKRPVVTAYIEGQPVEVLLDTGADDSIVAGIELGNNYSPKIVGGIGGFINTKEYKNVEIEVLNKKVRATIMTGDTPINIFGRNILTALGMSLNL
- test name: Protease Inhibition Assay
# reported pKi; entries follow
pKi is a log-scale quantity: -log10 of the concentration expressed in molar.

For orientation, consider the following solved cases.
{"sample smiles": "COc1ccc(CN[C@@H](C(=O)N[C@H](C(=O)NCc2nc3ccccc3[nH]2)C(C)C)[C@H](O)[C@H](Cc2ccccc2)NC(=O)[C@@H](NC(=O)OCc2ccccc2)C(C)(C)C)cc1", "pKi": 7.28}
{"sample smiles": "COc1ccc(CN[C@@H](C(=O)N[C@H](C(=O)NCc2nc3ccccc3[nH]2)C(C)C)[C@H](O)[C@H](Cc2ccccc2)NC(=O)[C@@H](NC(=O)CCc2ccc(O)cc2)C(C)(C)C)cc1", "pKi": 7.20}
{"sample smiles": "CC(C)[C@H](NC(=O)[C@H](NCc1ccc(Cl)cc1)[C@H](O)[C@H](Cc1ccccc1)NC(=O)[C@@H](NC(=O)OCc1ccccc1)C(C)(C)C)C(=O)NCc1nc2ccccc2[nH]1", "pKi": 7.77}

Hi! What's the reported pKi for `COc1ccc(CN[C@@H](C(=O)N[C@H](C(=O)NCc2nc3ccccc3[nH]2)C(C)C)[C@H](O)[C@H](Cc2ccccc2)NC(=O)[C@@H](NC(=O)[C@@](C)(O)c2ccccc2)C(C)(C)C)cc1` on Dimer of Gag-Pol polyprotein [514-612] (Human immunodeficiency virus 2)? 6.96

---

- experimental target: Dimer of Gag-Pol polyprotein [489-587] (Human immunodeficiency virus 1)
- Construct: 489-587
- test name: Protease Inhibition Assay
- reported conditions: pH 6.25; 37 °C
# reported pKi; entries follow
pKi is a log-scale quantity: -log10 of the concentration expressed in molar.

For orientation, consider the following solved cases.
{"molecule": "CCC(C)[C@H](NC(=O)OCc1ccccc1)C(=O)N[C@@H](Cc1ccccc1)[C@@H](O)[C@@H](NCc1ccccc1)C(=O)N[C@H](C(=O)NCc1ccccc1)C(C)C (some centres undefined)", "reading": 8.08}
{"molecule": "CC(C)[C@H](NC(=O)OCc1ccccc1)C(=O)N[C@@H](Cc1ccccc1)[C@@H](O)[C@@H](NCc1ccccc1)C(=O)N[C@H](C(=O)NCc1ccccc1)C(C)(C)C", "reading": 7.70}

Read the next record carefully.
What value of pKi has been reported for the following molecule? `CC(C)[C@H](NC(=O)[C@H](NCc1ccccc1)[C@H](O)[C@H](Cc1ccccc1)NC(=O)[C@H](CCC(=O)O)NC(=O)OCc1ccccc1)C(=O)NCc1ccccc1` 7.35
